# study.target: T1, Recombinant Human ADAMTS13 (Full Length) Protein (Homo sapiens, UniProt Q76LX8)
# T1 construct: ADAMTS13, human, commercial recombinant protein named 'Full Length' by the vendor; also called a disintegrin-like and metalloproteinase with thrombospondin type-1 motif 13; source: bought: R&D Systems (6156-AD-020)
# T1 sequence (Q76LX8 75-1427): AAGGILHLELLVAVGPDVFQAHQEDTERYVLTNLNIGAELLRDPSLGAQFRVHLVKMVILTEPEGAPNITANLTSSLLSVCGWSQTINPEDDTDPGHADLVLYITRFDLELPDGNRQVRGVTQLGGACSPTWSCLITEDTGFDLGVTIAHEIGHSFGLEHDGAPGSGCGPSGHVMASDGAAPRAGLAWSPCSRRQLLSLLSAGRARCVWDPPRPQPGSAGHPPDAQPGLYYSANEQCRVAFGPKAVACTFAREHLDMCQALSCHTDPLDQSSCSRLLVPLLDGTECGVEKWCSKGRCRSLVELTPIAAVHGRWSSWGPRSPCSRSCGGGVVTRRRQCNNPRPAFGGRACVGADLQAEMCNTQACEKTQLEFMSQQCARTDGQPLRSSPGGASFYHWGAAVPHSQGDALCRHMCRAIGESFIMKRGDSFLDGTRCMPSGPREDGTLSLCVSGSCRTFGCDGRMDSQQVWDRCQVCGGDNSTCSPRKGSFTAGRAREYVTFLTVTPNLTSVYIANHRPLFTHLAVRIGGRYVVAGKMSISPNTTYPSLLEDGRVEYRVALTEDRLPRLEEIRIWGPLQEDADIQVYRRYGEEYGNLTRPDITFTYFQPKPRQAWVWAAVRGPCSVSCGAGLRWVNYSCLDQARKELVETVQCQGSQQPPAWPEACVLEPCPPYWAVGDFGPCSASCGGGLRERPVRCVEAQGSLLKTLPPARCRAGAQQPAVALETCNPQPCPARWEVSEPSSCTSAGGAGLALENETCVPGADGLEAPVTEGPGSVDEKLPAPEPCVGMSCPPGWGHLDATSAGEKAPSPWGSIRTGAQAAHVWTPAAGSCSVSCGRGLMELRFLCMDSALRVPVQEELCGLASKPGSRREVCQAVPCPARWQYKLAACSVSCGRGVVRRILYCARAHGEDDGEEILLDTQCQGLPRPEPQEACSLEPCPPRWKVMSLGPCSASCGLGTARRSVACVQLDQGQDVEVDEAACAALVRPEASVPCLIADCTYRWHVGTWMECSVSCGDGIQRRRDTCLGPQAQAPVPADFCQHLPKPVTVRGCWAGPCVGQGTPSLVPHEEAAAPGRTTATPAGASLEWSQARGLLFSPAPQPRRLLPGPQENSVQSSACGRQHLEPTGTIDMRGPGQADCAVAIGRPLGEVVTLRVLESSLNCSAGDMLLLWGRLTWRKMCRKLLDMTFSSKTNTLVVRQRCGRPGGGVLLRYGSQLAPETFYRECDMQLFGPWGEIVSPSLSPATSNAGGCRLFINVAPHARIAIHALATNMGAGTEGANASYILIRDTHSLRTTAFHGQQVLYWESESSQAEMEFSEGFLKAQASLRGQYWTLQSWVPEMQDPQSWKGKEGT
# assay.details: SPR; Biacore T200; antibodies captured at about 1,000 RU on anti-human or anti-mouse IgG (Fc) on a CM5 chip; ADAMTS13 injected at 80 nM to 0.625 nM in PBS with 0.05% Tween 20; 25 C; 30 uL/min; contact 240 s, dissociation 900 s; 1:1 binding model
# measurement.context: both partners purified
pKd: −log10 of the molar value.
measured.endpoint: pKd

[
  {
    "binder": "mouse anti-ADAMTS13 antibody clone A10 (antibody, V domains shown, VH of mA10; mouse heavy chain constant region cloned from the mA10 hybridoma; VL of mA10; mouse light chain constant region cloned from the mA10 hybridoma; Whole mouse IgG; mouse IgG2b served as the negative control, which may hint at IgG2b (surmise); also called mA10; mouse A10; source: Expi293F, transiently transfected, purified (protein G)) VH: EVQLQQSGPELVKPGTSMKISCKASGYSFTGYTMHWVKQSHGKNLEWIGLINPYNGGTGYNQKFKGKATLTVDKSSSTTYIELLSLTSEDSAVYYCARTSGYLFAYWGQGTLVTVSA VL: DIQMTQSSSSFSVSLGDRVTITCKASEDIYNRLAWYQQKPGNAPRLLISGATSLETGVPSRFSGSGSGKDYIFSITSLQTEDVATYYCQQYWSSPLTFGAGTKLELK",
    "reported": 8.22
  },
  {
    "binder": "humanized A10 antibody A10/16E8 (antibody, V domains shown, VH of A10/16E8 (CDRs and flanking FR residues of mA10 grafted onto the human framework 16E8); VL of A10/16E8 (CDRs and flanking FR residues of mA10 grafted onto the human framework 16E8); also called A10/16A8 (as printed once in the discussion); source: Expi293F, transiently transfected, purified (protein G)) VH: QVQLVQSGGQVKKPGASVKISCKASGYSFTGYTMHWVKQAPGRGLEWIGLINPYNGGTGYNQKFKGKATLTVDKSSSTTYIELLSLTSEDSAVYYCARTSGYLFAYWGQGTLVTVSS VL: DIVLTQTPDSLAVSLGERATITCKASEDIYNRLAWYQQKAGQPPKLLISGATSLETGVPDRFSGSGSGTDFTLTISSLQAEDVATYYCQQYWSSPLTFGAGTKVNIK",
    "reported": 8.29
  },
  {
    "binder": "humanized A10 antibody A10/8A7 (antibody, V domains shown) VH: QIHLVESGGGVVQTGKSMKISCKASGYSFTGYTMHWVKQTPGKNLEWIGLINPYNGGTGYNQKFKGKATLTVDKSSSTTYIELLSLTSEDSAVYYCARTSGYLFAYWGQGTLVTVSS VL: ETVMTQSPATLSVSPGERATITCKASEDIYNRLAWYQQKPGQAPRLLISGATSLETGVPSRFSGSGSGTEFTLTISSLQSEDVATYYCQQYWSSPLTFGAGTKLEIK",
    "reported": 7.68
  },
  {
    "binder": "human-mouse chimeric A10 (antibody, V domains shown) VH: EVQLQQSGPELVKPGTSMKISCKASGYSFTGYTMHWVKQSHGKNLEWIGLINPYNGGTGYNQKFKGKATLTVDKSSSTTYIELLSLTSEDSAVYYCARTSGYLFAYWGQGTLVTVSA VL: DIQMTQSSSSFSVSLGDRVTITCKASEDIYNRLAWYQQKPGNAPRLLISGATSLETGVPSRFSGSGSGKDYIFSITSLQTEDVATYYCQQYWSSPLTFGAGTKLELK",
    "reported": 8.55
  }
]

All figures here come from paper PMC8595387.
